- Test context: rat, plasma
Parameter: half-life
Write the numeric value and append its unit.

Previously resolved entries follow.
- CCC1(CC)C(=O)NC(=O)NC1=O [Barbital]: 3.6 min
- CCCC(C)C1(CC)C(=O)NC(=O)NC1=O (stereo not drawn) [Pentobarbital]: 1.4 min

# ---- query compound ----
Qu. Please give the documented half-life of O=C(O)CCCc1ccc(N(CCCl)CCCl)cc1 [Chlorambucil]
Ans. 1.2 min

---

- Procedure summary: Octanol/water partition and distribution coefficients
- Test context: octanol distribution coefficient, pH 7.4
Lab note: anything with Log Doct 7.4 below -2 is marked Satisfied; values at -2 or higher are marked Not satisfied.

* N[C@@H](Cc1ccc(N(CCCl)CCCl)cc1)C(=O)O [Melphalan (para)] | Not satisfied
* CC(C)C[C@H](CN)CC(=O)O [Pregabalin] | Not satisfied
* CNC[C@H](N)C(=O)O [L-BMAA] | Satisfied
* N[C@@H](Cc1ccccc1)C(=O)O [L-Phenylalanine] | Not satisfied
* Nc1ncnc2nc[nH]c12 [Adenine] | Satisfied

Qu. API: query returns whether the compound falls strictly under -2 in Log Doct 7.4. Query: Nc1ccn([C@@H]2O[C@H](CO)[C@@H](O)C2(F)F)c(=O)n1 [Gemcitabine]
Ans. Not satisfied

Qu. API: query returns whether the compound falls strictly under -2 in Log Doct 7.4. Query: N[C@@H](Cc1ccc(O)c(O)c1)C(=O)O [L-DOPA]
Ans. Satisfied

Qu. API: query returns whether the compound falls strictly under -2 in Log Doct 7.4. Query: NCC1(CC(=O)O)CCCCC1 [Gabapentin]
Ans. Not satisfied

Qu. API: query returns whether the compound falls strictly under -2 in Log Doct 7.4. Query: Nc1ncnc2c1ncn2[C@@H]1O[C@H](CO)[C@@H](O)[C@H]1O [Adenosine]
Ans. Not satisfied

Qu. API: query returns whether the compound falls strictly under -2 in Log Doct 7.4. Query: N[C@H](C(=O)O)[C@@H]1CC(Cl)=NO1 [Acivicin]
Ans. Satisfied

Qu. API: query returns whether the compound falls strictly under -2 in Log Doct 7.4. Query: CC(C)C[C@H](N)C(=O)O [L-Leucine]
Ans. Not satisfied

Qu. API: query returns whether the compound falls strictly under -2 in Log Doct 7.4. Query: C[N+](C)(C)CCO [Choline]
Ans. Satisfied

---

- Test context: rat, brain
Lab note: anything with half-life below 3 min is marked true (1); values at 3 min or higher are marked false (0).

Consider the worked cases shown below.
• Fc1ccc([C@@H]2CCNC[C@H]2COc2ccc3c(c2)OCO3)cc1 = false (0)
• COc1ccc2c(c1)c(CC(=O)O)c(C)n2C(=O)c1ccc(Cl)cc1 = false (0)
• CCCCNC(=O)NS(=O)(=O)c1ccc(C)cc1 [Tolbutamide] = false (0)
• OCCCCCCO = true (1)

--- query ---
Qu. API: query returns whether the compound falls strictly under 3 min in half-life. Query: CNCCC(Oc1ccc(C(F)(F)F)cc1)c1ccccc1 (centres unmarked)
Ans. false (0)

---

- Test context: rat, in vivo, pH 7.4
Recorded Pc determines the group label, using low range: < 1 ×10⁻⁶ cm/s; mid range: ≥ 1 ×10⁻⁶ cm/s and < 300 ×10⁻⁶ cm/s; high range: ≥ 300 ×10⁻⁶ cm/s

Qu. For the record OCC(O)CO , report the class its Pc corresponds to.
Ans. low range

Qu. For the record Nc1c(O)cccc1C(=O)O [3-hydroxy-anthranilic acid] , report the class its Pc corresponds to.
Ans. mid range
